B1: Osa-1-4 twister ribozyme (parent)
chain: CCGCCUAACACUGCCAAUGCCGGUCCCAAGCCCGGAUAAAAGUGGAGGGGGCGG

Variants of: B1
Assay: self-cleavage, relative activity (ratio to wild type); higher = more cleavage; co-transcriptional
Binary call on self-cleavage: fulfilled from 0.06 upward, not fulfilled beneath that.

INSERT INTO results (change, label_class) VALUES
  ('C11A C31U', 'fulfilled'),
  ('C25A G53C', 'not fulfilled'),
  ('G48A U24G', 'not fulfilled'),
  ('A28U C14G', 'fulfilled'),
  ('A17C C9A', 'fulfilled'),
  ('A10C C14A', 'not fulfilled'),
  ('A17C U37C', 'fulfilled'),
  ('C15A C25G', 'not fulfilled'),
  ('A7C G47A', 'not fulfilled'),
  ('A36C C21G', 'not fulfilled'),
  ('A41G C27G', 'not fulfilled'),
  ('C14U G23C', 'not fulfilled'),
  ('G51A U12C', 'fulfilled'),
  ('G44A U12G', 'fulfilled'),
  ('G34C G42C', 'fulfilled'),
  ('G13U U24A', 'not fulfilled'),
  ('A36C G42C', 'fulfilled'),
  ('C52A G19A', 'fulfilled'),
  ('A41G G42U', 'fulfilled'),
  ('C21G G23C', 'not fulfilled'),
  ('A40U G49A', 'fulfilled'),
  ('A16C C31G', 'fulfilled'),
  ('G48C U43G', 'fulfilled'),
  ('C27A C52U', 'fulfilled'),
  ('C31U G34A', 'fulfilled'),
  ('C32A G53A', 'fulfilled'),
  ('A10G U43G', 'fulfilled'),
  ('A46U C31A', 'not fulfilled'),
  ('C26U G13A', 'not fulfilled'),
  ('C9G G48A', 'fulfilled'),
  ('A16U A29G', 'fulfilled'),
  ('G49U U18G', 'fulfilled'),
  ('A28U A41G', 'fulfilled'),
  ('A10C C15U', 'not fulfilled'),
  ('C25U G19C', 'not fulfilled'),
  ('G19C U12A', 'not fulfilled'),
  ('G23U G42U', 'not fulfilled'),
  ('G19A U43G', 'fulfilled'),
  ('A7U C9U', 'not fulfilled'),
  ('A17C C26U', 'fulfilled'),
  ('A16C C9A', 'fulfilled');

Origin of the recorded values: the RNAGym collection of RNA variant scans (doi:10.1002/anie.201605470)
